The reader will find reported inhibition at 10 µM values listed item by item below.
Biological target: HIV-1 protease (Human immunodeficiency virus type 1 group M subtype B)
Construct: The protease (or proteinase), consisting of only 99 amino acids, is among the smallest enzymes known
Test: In vitro HIV protease inhibitory assay (HIV Protease FITC Assay)
Type: biochemical
Settings: HIV-1 Dose 10.000 uM; read-out: HIV-1 Protease % Inhib
Protocol: The HIV protease screening assay is based on a fluorescently labeled substrate which can be resolved from nonlabeled cleavage product using avidin-polystyrene particles, 0.7-0.9 µm. […] The labeled cleavage product is separated from the unreacted substrate via filtration and is read on the Idexx Screen Machine. The data are analyzed by appropriate computer algorithms to ascertain percent inhibition values.
Please give a number only; it is taken to be in %.

Molecule: CC(C)(C)OC(=O)CCc1cc(O)c(C(c2ccccc2)C2CC2)c(=O)o1 (centres unmarked)
Measurement Target: HIV-1 protease (Human immunodeficiency virus type 1 group M subtype B)
Recorded Number: 74.7

Molecule: CCCS(=O)(=O)Nc1cccc(C(c2c(O)cc(C(CC)Cc3ccccc3)oc2=O)C2CC2)c1 (centres unmarked)
Measurement Target: HIV-1 protease (Human immunodeficiency virus type 1 group M subtype B)
Recorded Number: 95.1

Molecule: CC(C)C(CC1CCCOC1)c1cc(O)c(C(c2ccccc2)C2CC2)c(=O)o1 (centres unmarked)
Measurement Target: HIV-1 protease (Human immunodeficiency virus type 1 group M subtype B)
Recorded Number: 111

Molecule: CCC(Cc1ccccc1)c1cc(O)c(C(c2cccc(NC(=O)[C@H](Cc3cn(S(=O)(=O)c4ccc(C)cc4)cn3)NC(=O)OC(C)(C)C)c2)C2CC2)c(=O)o1 (some centres unmarked)
Measurement Target: HIV-1 protease (Human immunodeficiency virus type 1 group M subtype B)
Recorded Number: 98.3

Molecule: CCC(c1ccccc1)c1c(O)cc(C=Cc2ccc(OC)cc2)oc1=O (centres unmarked)
Measurement Target: HIV-1 protease (Human immunodeficiency virus type 1 group M subtype B)
Recorded Number: 84

Q: Indicate its recorded inhibition at 10 µM; the molecule in question is CCC(Cc1cccnc1)c1cc(O)c(C(c2ccccc2)C2CC2)c(=O)o1 (centres unmarked)
Result: 92.8

Q: Indicate its recorded inhibition at 10 µM; the molecule in question is CC(C)CC1(CCc2ccccc2)CC(O)=C(C(c2ccccc2)c2ccccc2)C(=O)O1 (centres unmarked)
Result: 76.7

Q: Indicate its recorded inhibition at 10 µM; the molecule in question is CCC(CC1COc2ccccc2O1)c1cc(O)c(C(c2ccccc2)C2CC2)c(=O)o1 (centres unmarked)
Result: 96.7

* * *

Biological target: HIV-1 protease (Human immunodeficiency virus type 1 group M subtype B, UniProt P04585)
Construct: The protease (or proteinase), consisting of only 99 amino acids, is among the smallest enzymes known
Assay: In vitro HIV protease inhibitory assay (HIV Protease FITC Assay)
Format: biochemical
Settings: HIV-1 Dose 0.370 uM; read-out: HIV-1 Protease % Inhib
Measured Quantity: inhibition at 0.37 µM (%)
Please give a number only; it is taken to be in %.

Worked examples, 6 compounds total:
Compound: O=c1oc(CC(O)c2ccc(F)cc2)cc(O)c1C(c1ccccc1)C1CC1 (centres unmarked)
Measurement Target: HIV-1 protease (Human immunodeficiency virus type 1 group M subtype B, UniProt P04585)
Recorded Number: 22.4
//
Compound: CCCC1(CCc2ccccc2)CC(O)=C(C(c2ccc(COCOC)s2)C2CC2)C(=O)O1 (centres unmarked)
Measurement Target: HIV-1 protease (Human immunodeficiency virus type 1 group M subtype B, UniProt P04585)
Recorded Number: 40.6
//
Compound: CCC(Cc1ccncc1)c1cc(O)c(C(c2ccccc2)C2CC2)c(=O)o1 (centres unmarked)
Measurement Target: HIV-1 protease (Human immunodeficiency virus type 1 group M subtype B, UniProt P04585)
Recorded Number: 15.1
//
Compound: C=CC(C1=C(O)CC2(CCCCCC2)OC1=O)c1ccccc1 (centres unmarked)
Measurement Target: HIV-1 protease (Human immunodeficiency virus type 1 group M subtype B, UniProt P04585)
Recorded Number: 14.4
//
Compound: CCC(CC1COc2ccccc2O1)c1cc(O)c(C(c2ccccc2)C2CC2)c(=O)o1 (centres unmarked)
Measurement Target: HIV-1 protease (Human immunodeficiency virus type 1 group M subtype B, UniProt P04585)
Recorded Number: 17.5
//
Compound: CCC(Cc1ccccc1)c1cc(O)c(C(c2cccc(NC(=O)CCn3ccc4ccccc43)c2)C2CC2)c(=O)o1 (centres unmarked)
Measurement Target: HIV-1 protease (Human immunodeficiency virus type 1 group M subtype B, UniProt P04585)
Recorded Number: 15.3

Q: Indicate its recorded inhibition at 0.37 µM; the compound in question is `O=C1OC(CCc2ccccc2)(CCc2ccccc2)CC(O)=C1C(c1ccccc1)c1ccccc1`
Result: 13.7

Q: Indicate its recorded inhibition at 0.37 µM; the compound in question is CCC(Cc1ccc(Cl)cc1)c1cc(O)c(C(c2ccccc2)C2CC2)c(=O)o1 (centres unmarked)
Result: 46

Q: Indicate its recorded inhibition at 0.37 µM; the compound in question is CCCC1(CCCc2ccccc2)CC(O)=C(C(CCc2ccccc2)c2ccccc2)C(=O)O1 (centres unmarked)
Result: 35.8

Q: Indicate its recorded inhibition at 0.37 µM; the compound in question is CCC(CC1CCCOC1)c1cc(O)c(C(CC)c2ccccc2)c(=O)o1 (centres unmarked)
Result: 26.5

Q: Indicate its recorded inhibition at 0.37 µM; the compound in question is CCC(Cc1ccccc1)c1cc(O)c(C(c2cccc(NS(=O)(=O)/C=C/c3ccccc3)c2)C2CC2)c(=O)o1 (centres unmarked)
Result: 55.9
